# Experimental target: T1, human RSPO3 (human, UniProt Q9BXY4 22-272)
# T1 construct: Recombinant human RSPO3 protein (Genentech); also called huRSPO3; hRSPO3
# T1 sequence: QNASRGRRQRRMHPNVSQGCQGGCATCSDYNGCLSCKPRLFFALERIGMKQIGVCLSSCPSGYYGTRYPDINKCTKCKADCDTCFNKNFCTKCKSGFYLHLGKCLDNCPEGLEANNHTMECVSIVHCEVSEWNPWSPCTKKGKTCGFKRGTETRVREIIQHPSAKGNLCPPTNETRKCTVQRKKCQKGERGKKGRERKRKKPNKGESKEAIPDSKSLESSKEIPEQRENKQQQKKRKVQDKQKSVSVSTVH
# Experiment notes: SPR (BIAcore T200), RSPO3 immobilized, antibody injected, 25 C, 1:1 Langmuir
pKd: −log10 of the molar value.

- Binder: "chimeric 4A6 (antibody, V domains shown, Chimeric counterpart of hu4A6 with the rat 4A6 variable domains) VH: EVQLVESGGGSVQPGRSLKVSCAASGFTFSDYDMAWVRQAPKKGLEWVATIIYDGSRTYYRDSVKGRFTLSRDNTKSTLCLQMDSLRSEDTATYYCAAHDRSFDYWGQGIMVTVSS VL: DIQMTQSPASLSASLGETVSIECLASEDISNDLVWYQQKSGKSPQLLIYAASRLQDGVPSRFSGSGFGTRFSLKISGMQPEDEADYFCQQSYKYLPTFGAGTKLGLK"
  pKd: 9.44
- Binder: "hu15F3.L4H2 (antibody, V domains shown, CDR graft only (L4, H2); also called humanized 15F3) VH: EVQLVESGGGVVQPGRSLRLSCAASGFTFSDYDMAWVRQAPGKGLEWVATIIYDGSRAYFGDSVRGRFTISRDNSKNTLYLQMNSLRAEDTAVYYCTAHDRSFDYWGQGTMVTVSS VL: DIQMTQSPSSLSASVGDRVTITCLVSEDISNDFVWYQQKPGKAPKLLIYAASRLQDGVPSRFSGSGSGTDFTLTISSLQPEDFATYYCQQSYKYPPTFGQGTKLEIK"
  pKd: 9.08
- Binder: "hu4A6.L4H2 (antibody, V domains shown, CDR graft only (L4, H2); also called humanized 4A6) VH: EVQLVESGGGVVQPGRSLRLSCAASGFTFSDYDMAWVRQAPGKGLEWVATIIYDGSRTYYRDSVKGRFTISRDNSKNTLYLQMNSLRAEDTAVYYCAAHDRSFDYWGQGTMVTVSS VL: DIQMTQSPSSLSASVGDRVTITCLASEDISNDLVWYQQKPGKAPKLLIYAASRLQDGVPSRFSGSGFGTDFTLTISSLQPEDFATYYCQQSYKYLPTFGQGTKLEIK"
  pKd: 9.36
- Binder: "hu11C10.L5H1 (antibody, V domains shown, CDR graft light chain L5 with H1; also called humanized 11C10) VH: EVQLVESGGGVVQPGRSLRLSCAASGFTFSDYDMAWVRQAPGKGLEWVATIIYDGSRTYYRDSVKGRFTISRDNSKNTLYLQMNSLRAEDTAVYYCATHDKTFDYWGQGTMVTVSS VL: DIQLTQSPSSLSASVGDRVTITCRASEDIYSDLAWYQQKPGKAPKLLIYDVNSLIHGVPSRFSGSGSGTDFTLTISSLQPEDFATYYCQQYDNYPNTFGQGTKLEIK"
  pKd: 8.52
